Molecular target: V. cholerae BH1651 luxOD47E, luciferase light induction, 6 h
Assay: Quorum luxo inducers, light production, v cholerae bh1651 luxod47e, confirmatory dose response (AID 624254)
Activity calls are given as the source filed them. The rule behind the calls is not given here.
Outcome codes: active, inactive

| MOLECULE | QUALITATIVE LABEL |
| --- | --- |
| CC(=O)Nc1ccc(N2CCCC2)cc1 | inactive |
| Cc1cc(C)cc(NC(=O)Cn2ncn3c(cc4ccccc43)c2=O)c1 | active |
| CCCCCc1c(C)nc(N2CCc3ccccc3C2)[nH]c1=O | active |
| CSc1ccc(C#N)cc1NC(=O)c1ccc(Cl)cc1Cl | inactive |
| O=C(Nc1nnc(C(F)(F)F)s1)C1COc2ccccc2O1 (stereo unspecified) | active |
| COc1ccccc1NC(=O)c1nn(-c2ccc(Cl)cc2)ccc1=O | active |

###

Recorded AC50, one value per entry.
Target: V. cholerae BH1651 luxOD47E, luciferase light induction, 6 h
Experiment: Quorum luxo inducers, light production, v cholerae bh1651 luxod47e, confirmatory dose response (AID 624254)

| SMILES REPRESENTATION | AC50 |
| --- | --- |
| CC(=O)c1cccc(NC(=O)CSc2nc(=O)n(CCCN3CCOCC3)c3c2CCC3)c1 | 180 nM |
| C=C(C)COc1ccc(-c2ncncc2Oc2ccc(OC)cc2)c(O)c1 | 632 nM |
| O=[N+]([O-])c1ccc(N(CCO)CCO)c2c1no[n+]2[O-] | 1200 nM |
| O=C(CSc1nnc2ccccn12)c1ccc2c(c1)OCCO2 | 17000 nM |
| COc1cc(NC(=O)Nc2cccc(Cl)c2)c(OC)cc1NC(=O)CN1CCCCC1 | 522 nM |

###

Assay: Quorum luxo inducers, light production, v cholerae bh1651 luxod47e, confirmatory dose response (AID 624254)
Conditions: V. cholerae BH1651 luxOD47E, luciferase light induction, 6 h; at 50 µM (top of the series)
Calls of active or inactive are those of the source. No rule for the calls is given here.

| COMPOUND | activation (light increase) |
| --- | --- |
| CC(=O)Nc1ccccc1NS(=O)(=O)c1cn(C)cn1 | inactive |
| O=C(NCc1ccccc1)C1CCCN(S(=O)(=O)c2cccnc2)C1 (stereo not given) | inactive |
| O=C(CCNC(=O)c1ccc(Cl)cc1)NCC(c1ccco1)N1CCCCC1 (stereo not given) | inactive |
| CC1CCCN(C(=O)c2ccc3c(=O)n(Cc4ccc5c(c4)OCO5)c(=S)[nH]c3c2)C1 (stereo not given) | inactive |
| Cc1ccc(S(=O)(=O)Nc2ccccc2F)cc1C(=O)NCCCN1CCCC1=O | inactive |

###

Target: V. cholerae BH1651 luxOD47E, luciferase light induction, 6 h
Test: Quorum luxo inducers, light production, v cholerae bh1651 luxod47e, confirmatory dose response (AID 624254)
Calls of active or inactive are those of the source. How the calls were made is not given here.
Outcome codes: t (active), f (inactive)

| MOLECULE | SYSTEM NAME | QUALITATIVE LABEL |
| --- | --- | --- |
| CCCCn1nnnc1NCc1ccc(N2CCCC2)cc1 | V. cholerae BH1651 luxOD47E, luciferase light induction, 6 h | t |
| COC(=O)c1ccccc1NC(=O)Cn1cc2c(n1)CCC(C)C2 (stereo not given) | V. cholerae BH1651 luxOD47E, luciferase light induction, 6 h | t |
| COc1ccc(-c2noc(CCC(=O)N3CCN(c4cccc(C(F)(F)F)c4)CC3)n2)cc1 | V. cholerae BH1651 luxOD47E, luciferase light induction, 6 h | t |
| C[C@H](CO)N1C[C@H](C)[C@@H](CN(C)S(=O)(=O)c2ccccc2)Oc2c(NC(=O)Nc3ccc4c(c3)OCO4)cccc2C1=O | V. cholerae BH1651 luxOD47E, luciferase light induction, 6 h | t |
| CC(=O)N1CCN(C(=O)COc2ccc(Br)cc2)CC1 | V. cholerae BH1651 luxOD47E, luciferase light induction, 6 h | f |
| Cn1c(C(=O)NC2CCCCC2)cc2c(=O)n(C)c3ccccc3c21 | V. cholerae BH1651 luxOD47E, luciferase light induction, 6 h | t |
| COC(=O)C(C)N(c1ccc(C)cc1)S(=O)(=O)c1c(C)[nH]c(=O)[nH]c1=O (stereo not given) | V. cholerae BH1651 luxOD47E, luciferase light induction, 6 h | f |
| CCc1cc(C(=O)c2ccccc2OC)c(N)s1 | V. cholerae BH1651 luxOD47E, luciferase light induction, 6 h | t |
| O=c1cc(CSc2ccccn2)c2ccccc2[nH]1 | V. cholerae BH1651 luxOD47E, luciferase light induction, 6 h | t |
| Cc1noc(C)c1S(=O)(=O)N1CCCC(C(=O)NCCC2=CCCCC2)C1 (stereo not given) | V. cholerae BH1651 luxOD47E, luciferase light induction, 6 h | t |

###

Molecular target: V. cholerae BH1651 luxOD47E, luciferase light induction, 6 h
Assay: Quorum luxo inducers, light production, v cholerae bh1651 luxod47e, confirmatory dose response (AID 624254)
Activity calls are given as the source filed them. No rule for the calls is given here.
Outcome codes: yes (1) = active, no (0) = inactive

| MOLECULE | QUALITATIVE LABEL |
| --- | --- |
| CCC(Oc1ccccc1)C(=O)Nc1ccc(-c2nnc(-c3ccco3)o2)cc1 (stereo not given) | no (0) |
| COc1ccc(CNC(=O)c2cc(-n3cnnc3)ccc2Cl)cc1 | yes (1) |
| CCOCCCN1CC(C(=O)NCCc2ccc(C)cc2)CC1=O (stereo not given) | yes (1) |
| O=C(c1ccc(C(=O)N2CCOCC2)nc1)N1CCOCC1 | yes (1) |
| Cc1ccc(C)c(-n2c(Cc3cccs3)n[nH]c2=S)c1 | yes (1) |
| NS(=O)(=O)c1ccc(NC(=O)NC2CCCCC2)cc1 | yes (1) |
| Cc1ccc2cc3c(NC(=O)c4ccco4)nn(C)c3nc2c1 | yes (1) |
| O=C(O)c1cccc(Nc2ncnc3c2cnn3-c2ccccc2)c1 | no (0) |
| COc1ccc(NC(=O)Nc2cccc3c2O[C@H](CN(C)S(=O)(=O)c2ccccc2)[C@@H](C)CN([C@H](C)CO)C3=O)cc1 | yes (1) |
| CC(NC(=O)CN1CCN(c2ccccc2F)CC1)c1ccccc1 (stereo not given) | no (0) |
| Cc1cccc(-c2cc3nc4c(c(N5CCC6(CC5)OCCO6)n3n2)CCCC4)c1 | no (0) |
| COc1ccc(N2CC(C(=O)Nc3cc(C(F)(F)F)ccc3N3CCCC3)CC2=O)c(OC)c1 (stereo not given) | yes (1) |
| CCC(NC(=O)Nc1nccs1)(C(F)(F)F)C(F)(F)F | yes (1) |
| COc1ccc(NC(=O)CCS(=O)(=O)c2ccc3c(c2)CCCN3C(C)=O)cc1Cl | yes (1) |
| Cc1noc(C)c1S(=O)(=O)Nc1ccc2c(c1)C(=O)N([C@H](C)CO)C[C@H](C)[C@@H](CN(C)Cc1ccc(C(=O)O)cc1)O2 | yes (1) |
| O=C(NC1CCCCC1)C(=O)c1c[nH]c2ccccc12 | yes (1) |
| CCOC(=O)c1cnc2nc(C(F)(F)F)[nH]n2c1=O | yes (1) |
| Cc1ccc(C)c(S(=O)(=O)N2CCN(C(=O)c3n[nH]c(=O)c4ccccc34)CC2)c1 | yes (1) |
| COc1ccc(CNc2nnnn2C)cc1 | yes (1) |
| O=C(CCN1C(=O)c2ccccc2C1=O)N1CCN(C2c3ccccc3-c3ccccc32)CC1 | yes (1) |
| CSc1nc(C)cc(OCC(=O)N2CCOCC2)n1 | yes (1) |
| CN(C(=O)Cn1cc(C(F)(F)F)cc(Cl)c1=O)C1CCS(=O)(=O)C1 (stereo not given) | yes (1) |
| O=C(NCc1ccccn1)c1ccc(CS(=O)(=O)Cc2ccc(Cl)cc2)o1 | yes (1) |
| O=C(NCc1ccco1)C1CCCN1S(=O)(=O)c1ccc2ccccc2c1 (stereo not given) | no (0) |
| O=C(CNC(=O)c1cccc(S(=O)(=O)N2CCc3ccccc32)c1)Nc1ccc(F)c(F)c1F | yes (1) |
| Cc1cc(Oc2ccc(C#N)cc2)nc(N2CCOCC2)n1 | yes (1) |
| CCOC(=O)C1=C(C)N=C2SCCC(=O)N2C1c1cc(Br)ccc1OC (stereo not given) | yes (1) |
| CC1CCCCC1NC(=O)COC(=O)c1ccccc1NC(=O)c1ccco1 (stereo not given) | yes (1) |
| CN(CC(=O)Nc1c(Cl)cccc1Cl)C(=O)c1n[nH]c2ccccc12 | yes (1) |
| CC(C)(C)Cc1nc(-c2ccccn2)no1 | no (0) |

###

Target: V. cholerae BH1651 luxOD47E, luciferase light induction, 6 h
Experiment: Quorum luxo inducers, light production, v cholerae bh1651 luxod47e, confirmatory dose response (AID 624254)

| MOLECULE | SYSTEM NAME | AC50 |
| --- | --- | --- |
| CCn1nc(NC(=O)c2ccco2)c2cc3ccccc3nc21 | V. cholerae BH1651 luxOD47E, luciferase light induction, 6 h | 2.36 µM |
| Cc1ccc(N2C(=O)C(CN(C)C)C2c2ccccc2)cc1 (stereo not given) | V. cholerae BH1651 luxOD47E, luciferase light induction, 6 h | 0.417 µM |
| C[C@H](CO)N1C[C@H](C)[C@@H](CN(C)S(=O)(=O)c2cccs2)Oc2c(NC(=O)Nc3ccc4c(c3)OCO4)cccc2C1=O | V. cholerae BH1651 luxOD47E, luciferase light induction, 6 h | 1.18 µM |
| O=C(Nc1nnc(-c2ccc3c(c2)OCCO3)o1)C1CCCCC1 | V. cholerae BH1651 luxOD47E, luciferase light induction, 6 h | < 0.0235 µM |
| C=CCn1c(NCc2ccccc2)nc2ccccc21 | V. cholerae BH1651 luxOD47E, luciferase light induction, 6 h | 11.7 µM |

Attribution: PubChem BioAssay AID624254
